test_context: in ethyl acetate, 283.15 K
reported_property: solubility (mole fraction)
Quick one: just the number, no unit, thanks!

q: Look at this molecule and give its reported solubility (mole fraction). `O=C(O)CNC(=O)OCc1ccccc1`
a: 0.0185

====

test_context: in isobutanol, 288.15 K
reported_property: solubility (mole fraction)
Quick one: just the number, no unit, thanks!

q: Look at this molecule and give its reported solubility (mole fraction). `O=C(O)CNC(=O)OCc1ccccc1`
a: 0.0188

====

test_context: in acetone, 313.15 K
reported_property: solubility (mole fraction)

q: Look at this molecule and give its reported solubility (mole fraction). `O=C(O)CNC(=O)OCc1ccccc1`
a: 0.14

Ref: BigSolDB 2.1
